Biological target: T1, IL-36R naturally expressed on OVCAR8 cells and on normal human epidermal keratinocytes (NHK cells) (human, UniProt Q9HB29 20-575)
T1 sequence (looked up): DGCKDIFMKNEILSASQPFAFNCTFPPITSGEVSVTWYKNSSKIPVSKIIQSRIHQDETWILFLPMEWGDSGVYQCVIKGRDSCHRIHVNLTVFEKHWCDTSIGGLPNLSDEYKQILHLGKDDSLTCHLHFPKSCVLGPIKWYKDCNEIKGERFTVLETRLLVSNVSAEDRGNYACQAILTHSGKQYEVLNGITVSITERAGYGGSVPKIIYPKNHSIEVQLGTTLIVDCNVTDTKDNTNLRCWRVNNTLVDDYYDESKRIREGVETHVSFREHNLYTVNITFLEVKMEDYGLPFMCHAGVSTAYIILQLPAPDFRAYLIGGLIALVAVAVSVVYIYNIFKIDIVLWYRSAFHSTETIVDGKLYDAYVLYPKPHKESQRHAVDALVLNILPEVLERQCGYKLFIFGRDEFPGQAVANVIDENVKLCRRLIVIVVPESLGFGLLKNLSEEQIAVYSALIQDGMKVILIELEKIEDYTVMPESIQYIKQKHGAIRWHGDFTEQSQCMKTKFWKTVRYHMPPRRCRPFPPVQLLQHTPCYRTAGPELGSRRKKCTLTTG
Test: cell-based or functional assay
ENDPOINT: Maximum inhibition rate %; hIL36β; IL-8 production
Reply with the number, then its unit.

hz84C4-1.5 (antibody, human IgG4 S228P, kappa, V domains shown, Humanized, human IgG4 / kappa) VH: QVQLVQSGAEVKKPGASVKVSCKVSGYFFTSYWMNWVNQAPGQGLEWMGMIHPYDSETRLAQKFKGRVTMTVDKSTSTVYMELSSLRSEDTAVYYCASSTTAFAYWGQGTLVTVSS VL: DIQMTQSPSSLSASVGDRVTITCRASQDIGNALNWYQQKPGKAPKRLIYATSSLDPGVPSRFSGSRSGTDFTLTISSLQPEDFATYYCLQYASSPYTFGQGTKVEIKR : 99.2%
hz84C4-2.2 (antibody, human IgG4 S228P, kappa, V domains shown, Humanized, human IgG4 / kappa) VH: QVQLVQSGAEVKKPGASVKVSCKASGYFFTSYWMNWVRQAPGQGLEWMGYIHPYDSETRYAQKFQGRVTMTVDKSTSTVYMELSSLRSEDTAVYYCASSTTAFAYWGQGTLVTVSS VL: DIQMTQSPSSLSASVGDRVTITCRASQDIGNALNWLQQKPGKAPKRLIYATSSLDPGVPSRFSGSRSGTDYTLTISSLQPEDFATYYCLQYASSPYTFGQGTKVEIKR : 98.5%

Reported Maximum inhibition rate %; hIL36β; IL-8 production of hz84C4-2.4 (antibody, human IgG4 S228P, kappa, V domains shown, Humanized, human IgG4 / kappa) VH: QVQLVQSGAEVKKPGASVKVSCKASGYYFTSYWMNWVRQAPGQGLEWMGMIHPYDSETRLAQKFKGRVTMTVDKSTSTVYMELSSLRSEDTAVYYCASSTTAFAYWGQGTLVTVSS VL: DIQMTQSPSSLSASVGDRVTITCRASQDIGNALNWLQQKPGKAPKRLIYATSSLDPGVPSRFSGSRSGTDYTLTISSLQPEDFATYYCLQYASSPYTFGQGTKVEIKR : 99.1%
